# PROTOCOL: Stability in microsomes, mouse
# Type: in vitro ADME
# CONDITION CONTEXT: Mouse (CD) microsomes, mean n = 2
Listed here: items and their measured microsomal CLint at 3 μM.

[
  {
    "COMPOUND": "Cc1cc(OCCCS(C)(=O)=O)cc(C)c1-c1cccc(COc2ccc3c(c2)OC[C@H]3CC(=O)O)c1 [TAK-875, fasiglifam, reference compound]",
    "microsomal CLint at 3 μM / µL/min/mg": 4
  },
  {
    "COMPOUND": "CC#C[C@@H](CC(=O)O)c1ccc(OCC(C)=C(C)C)cc1 [CPL207280]",
    "microsomal CLint at 3 μM / µL/min/mg": 11.9
  }
]

Taken from paper PMC8459971.
